Cited source: patent US12247019B2

# assayed-system: Des1 (Homo sapiens, UniProt O15121)
# experiment-notes: Jurkat T cell measurement of conversion of dihydroceramide to ceramide (Des1 activity, LC-MS/MS of NBD-C6-ceramide)
# Assay type: cell-based
# Set-up: endogenous in cells; host or cells: Jurkat clone E6-1
# experimental-conditions: 0.5 uM compound; Jurkat clone E6-1 cells, 10 μM NBD-C6-dihydroceramide, 3 hours at 37° C.; read-out: Des1 % Inhib (0.5 uM)
measured-parameter: inhibition at 0.5 µM (%)

[I] CC(C)CCCCCS(=O)(=O)Nc1ccc(O)cn1
[II] Cn1cc(C2CCC(C(=O)Nc3ccc(O)cn3)CC2)cn1 (centres unmarked)
Req: // max by inhibition at 0.5 µM over [ I , II ] Kindly give the label for the entry you pick.
Resp: I

###

# assayed-system: Des1 (Homo sapiens)
# experiment-notes: Jurkat T cell measurement of conversion of dihydroceramide to ceramide (Des1 activity, LC-MS/MS of NBD-C6-ceramide)
# Format: cell-based
# Parameters: endogenous in cells; host or cells: Jurkat clone E6-1
# experimental-conditions: Jurkat clone E6-1 cells, 10 μM NBD-C6-dihydroceramide, 3 hours at 37° C.; read-out: Des1 IC50
measured-parameter: IC50 (nM)

# count of solved cases: 3
> print(dat)
                                   compound  measured.parameter  observed.value
1  O=C(Nc1ccc(O)cn1)N1CCN(c2cc(C(F)(F)F)ccn2)CC1 [Example 33]                IC50               7
2  O=C(Nc1ccc(O)cn1)NC1CCN(c2ccc(F)cc2)CC1 [Example 51]                IC50              92
3  O=C(Nc1ccc(O)cn1)NC1CCN(c2ccc(F)cn2)CC1 [Example 49]                IC50             130

[a] O=C(Nc1ccc(O)cn1)OC1CCN(c2ccc(C(F)(F)F)cc2)CC1 [Example 57]
[b] O=C(Nc1ccc(O)cn1)N1CCN(c2ccccc2)CC1 [Example 3]
Req: Determine, for a and b , which has the greater value of IC50. Write the label of whichever entry you select.
Resp: b
(b: 53 nM, a: 1 nM)

[A] O=C(Nc1ccc(O)cn1)OC1CCCCC1 [Example 42]
[B] CCCCCCOC(=O)Nc1ccc(O)cn1 [Example 41, Hexyl N-(5-hydroxypyridin-2-yl)carbamate]
Req: Quick check, higher IC50 between A and B ? Please respond with the label that marks your chosen entry.
Resp: A
(A: 35 nM, B: 13 nM)

###

# assayed-system: Des1 (Homo sapiens)
# experiment-notes: Jurkat T cell measurement of conversion of dihydroceramide to ceramide (Des1 activity, LC-MS/MS of NBD-C6-ceramide)
# Type: cell-based
# Set-up: endogenous in cells; host or cells: Jurkat clone E6-1
# experimental-conditions: Jurkat clone E6-1 cells; read-out: half-maximal inhibitory concentration (IC50)
measured-parameter: IC50

Record CC1=C(/C=C/C(C)=C/C=C/C(C)=C/C(=O)Nc2ccc(O)cc2)C(C)(C)CCC1 [fenretinide] , field IC50: 100 to 250 nM

###

# assayed-system: Des1 (Homo sapiens, UniProt O15121)
# Sequence (O15121 1-323): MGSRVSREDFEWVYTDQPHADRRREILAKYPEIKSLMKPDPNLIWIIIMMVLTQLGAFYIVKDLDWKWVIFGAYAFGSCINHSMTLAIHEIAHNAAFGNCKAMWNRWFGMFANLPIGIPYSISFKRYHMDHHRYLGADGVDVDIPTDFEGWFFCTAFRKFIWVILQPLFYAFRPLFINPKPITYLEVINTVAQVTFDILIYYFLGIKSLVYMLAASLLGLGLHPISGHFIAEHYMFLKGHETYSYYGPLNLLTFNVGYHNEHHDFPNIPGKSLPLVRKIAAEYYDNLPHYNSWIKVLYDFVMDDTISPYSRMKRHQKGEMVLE
# experiment-notes: Jurkat T cell measurement of conversion of dihydroceramide to ceramide (Des1 activity, LC-MS/MS of NBD-C6-ceramide)
# Type: cell-based
# Set-up: endogenous in cells; host or cells: Jurkat clone E6-1
# experimental-conditions: 0.5 uM compound; Jurkat clone E6-1 cells, 10 μM NBD-C6-dihydroceramide, 3 hours at 37° C.; read-out: Des1 % Inhib (0.5 uM)
measured-parameter: inhibition at 0.5 µM (%)

// worked examples, inhibition at 0.5 µM included
> print(dat)
                                    compound                       assayed.system    measured.parameter  scale.unit  observed.value
 1      O=C(Nc1ccc(O)cn1)N1CCC(Cc2ccccc2)CC1  Des1 (Homo sapiens, UniProt O15121)  inhibition at 0.5 µM           %            94.9
 2    O=C(Nc1ccc(O)cc1)N1CCN(c2ccc(F)cc2)CC1  Des1 (Homo sapiens, UniProt O15121)  inhibition at 0.5 µM           %            58.6
 3    O=C(Nc1ccc(O)cn1)N1CCN(c2ccc(F)cc2)CC1  Des1 (Homo sapiens, UniProt O15121)  inhibition at 0.5 µM           %            91.5
 4  O=C(Nc1ccc(O)cn1)N1CCN(c2ccc(C(F)(F)F)cc2)CC1  Des1 (Homo sapiens, UniProt O15121)  inhibition at 0.5 µM           %            95.9
 5       O=C(Nc1ccc(O)cn1)N1CCN(c2ccccc2)CC1  Des1 (Homo sapiens, UniProt O15121)  inhibition at 0.5 µM           %            87.9
 6  O=C(Nc1ccc(O)cc1)N1CCN(c2ccc(C(F)(F)F)cc2)CC1  Des1 (Homo sapiens, UniProt O15121)  inhibition at 0.5 µM           %            89.7
 7  O=C(Nc1ccc(O)cn1)N1CCN(c2cccc(C(F)(F)F)n2)CC1  Des1 (Homo sapiens, UniProt O15121)  inhibition at 0.5 µM           %            94.9
 8  O=S(=O)(Nc1ccc(O)cn1)N1CCC(c2ccc(Cl)cc2)CC1  Des1 (Homo sapiens, UniProt O15121)  inhibition at 0.5 µM           %              88
 9      O=C(Nc1ccc(O)cn1)c1cccc(-c2ccccc2)c1  Des1 (Homo sapiens, UniProt O15121)  inhibition at 0.5 µM           %              93
10  O=S(=O)(Nc1ccc(O)cn1)C1CCN(c2ccc(F)cc2)CC1  Des1 (Homo sapiens, UniProt O15121)  inhibition at 0.5 µM           %            72.1

[1] O=C(Nc1ccc(O)cn1)N1CCC(c2ccccc2)CC1
[2] O=C(Nc1ccc(O)cc1)N1CCN(c2ccc(F)cc2F)CC1
Req: // task: argmin of inhibition at 0.5 µM over [ 1 , 2 ] Answer = label.
Resp: 2
(2: 57.8%, 1: 89.6%)

[P] O=S(=O)(Nc1ccc(O)cn1)C1CCN(c2ccc(C(F)(F)F)cc2)CC1
[Q] O=C(Nc1ccc(O)cn1)NC1CCOCC1
[R] O=C(Nc1ccc(O)cn1)N1CCN(c2cccnc2)CC1
Req: Could you please sort these 3 entries by inhibition at 0.5 µM from high to low? Please, when replying, give the labels in the order that was requested.
Resp: P, Q, R

[A] O=C(Nc1ccc(O)cn1)N1CCN(c2cc(C(F)(F)F)ccn2)CC1
[B] O=C(Nc1ccc(O)cn1)N1CCN(c2ncccn2)CC1
Req: Hi! Which is lower in terms of inhibition at 0.5 µM, the first one A or the second one B ? Identify your selection by its label.
Resp: B
(B: 31.4%, A: 93.1%)

[I] CCCCCCNC(=O)Nc1ccc(O)cn1 [Example 40, 1-Hexyl-3-(5-hydroxypyridin-2-yl)urea]
[II] O=S(=O)(Nc1ccc(O)cn1)C1CCN(c2ccccc2)CC1
Req: // task: argmin of inhibition at 0.5 µM over [ I , II ] Response format: the label of the selected entry.
Resp: II
